test: Distribution of C1 in tissues; assay type: in vivo, Wistar rats; conditions: male, Wistar, rat, liver, po, 75 mg/kg, Liver, 3 h, p.o. 75 mg/kg, n = 3; read-out: Average Concentration
Readout: concentration at 3 h (ng/mL)
Give bare numbers, in ng/mL.

Prompt: # lookup: concentration at 3 h of O=C(/C=C(/Br)C(=O)O)Nc1ccc(O)c(C(=O)O)c1 [Compound C1]
Response: 4900

###

test: Distribution of C1 in tissues; type: in vivo, Wistar rats; conditions: male, Wistar, rat, small intestine, po, 75 mg/kg, Small intestine, 6 h, p.o. 75 mg/kg, n = 3; read-out: Average Concentration
Readout: concentration at 6 h (ng/mL)
Answers are plain numbers, in ng/mL.

Prompt: # lookup: concentration at 6 h of O=C(/C=C(/Br)C(=O)O)Nc1ccc(O)c(C(=O)O)c1
Response: 10100
